Quick reference: inhibition of the listed items.
assay_info: BT084 cell growth, single and combined drugs, ICGC_MB145, cisplatin and BGB IC40 combos (AID 1671461);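 note: cells exposed to drugs for 96 hours; 0% = vehicle DMSO and 100% = high DMSO full killing control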
condition_details: BT084 medulloblastoma cells, drug combinations, single agent, at 5 µM, stronger effect = higher value
Non-standard residues stand in square brackets, D forms with d. Residues, ends and D or L forms follow the SMILES beside them. Dolaproine = CO[C@@H]([C@@H]1CCCN1)[C@@H](C)C(=O)O; Dil = CC[C@H](C)[C@H](NC)[C@@H](CC(=O)O)OC; NMeV = CN[C@H](C(=O)O)C(C)C
Kindly provide the numeric value in % only, without the unit symbol.

Recorded results for 10 compounds are shown here.
>  <compound>
O=C(CCCCCCC(=O)NO)NO

>  <test_result>
28.5

$$$$
>  <compound>
CC1CN(c2c(F)c(N)c3c(=O)c(C(=O)O)cn(C4CC4)c3c2F)CC(C)N1 (stereo unspecified)

>  <test_result>
-7.96

$$$$
>  <compound>
CC1OC(CC(=O)O)CC2=C1C(=O)c1c(O)cccc1C2=O (stereo unspecified)

>  <test_result>
107

$$$$
>  <compound>
O=C(CCCCCCC(=O)Nc1ccc(I)cc1)NO

>  <test_result>
103

$$$$
>  <compound>
CCC(Sc1nnc2c3ccccc3n(CC)c2n1)C(=O)Nc1ccccc1OC (stereo unspecified)

>  <test_result>
-15.3

$$$$
>  <compound>
C=CC1=C(C)C2=CC3=NC(=C(CC(=O)O)C4=NC(=C(C)C4=C(O)O)C=c4[nH]c(c(C)c4CC)=CC1=N2)C(CCC(=O)O)C3C (stereo unspecified)

>  <test_result>
-10.5

$$$$
>  <compound>
C=C(C)C1CCC2(C(=O)O)CCC3(C)C(CCC4C5(C)CCC(O)C(C)(C)C5CCC43C)C12 (stereo unspecified)

>  <test_result>
-5.82

$$$$
>  <compound>
CC[C@H](C)[C@@H]([C@@H](CC(=O)N1CCC[C@H]1[C@H](OC)[C@@H](C)C(=O)N[C@@H](Cc1ccccc1)C(=O)O)OC)N(C)C(=O)[C@@H](NC(=O)[C@@H](NC)C(C)C)C(C)C (H-[NMeV]V[Dil][Dolaproine]F-OH)

>  <test_result>
67.2

$$$$
>  <compound>
Nc1nc(NC2CC2)cc(-c2cccc(Cl)c2Cl)n1

>  <test_result>
-6.16

$$$$
>  <compound>
Cc1cc(C=CC#N)cc(C)c1Nc1ccnc(Nc2ccc(C#N)cc2)n1

>  <test_result>
-18.3

$$$$

Now, please, on to the next compound.
Q) What value of inhibition has been reported for the following compound? Cc1c(Br)cc(NCC(=O)N/N=C/c2cc([N+](=O)[O-])ccc2O)cc1Br
A) 6.62

* * *

assay_info: growth inhibition, single agent and combos, cell-based, chromothripsis tumors, cisplatin or BGB combos (AID 1671450);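 note: cells exposed to compound for four days; 0% = vehicle DMSO and 100% = cell killing by high DMSO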
condition_details: HDN33 neuroblastoma cells, measured here: with BGB IC20 combination, at 0.5 µM, stronger effect = higher value
value_kind: inhibition (%)
Kindly provide the numeric value in % only, without the unit symbol.

Recorded results for 4 compounds are shown here.
>  <compound>
Nc1ccn(C2CCC(CO)O2)c(=O)n1 (configuration not stated)

>  <inhibition / %>
-28.7

$$$$
>  <compound>
Cc1cc(C)c(Nc2ccnc(Nc3ccc(C#N)cc3)n2)c(C)c1

>  <inhibition / %>
-2.53

$$$$
>  <compound>
Cc1c(Br)cc(NCC(=O)N/N=C/c2cc([N+](=O)[O-])ccc2O)cc1Br

>  <inhibition / %>
-9.6

$$$$
>  <compound>
Cn1cc(-c2cnn3c(N)c(Br)c([C@H]4CCCNC4)nc23)cn1

>  <inhibition / %>
9.52

$$$$

Q) What value of inhibition has been reported for the following compound? CC1OC(CC(=O)O)CC2=C1C(=O)c1c(O)cccc1C2=O (configuration not stated)
A) 99.9

Q) What value of inhibition has been reported for the following compound? CON=C1CN(c2nc3c(cc2F)c(=O)c(C(=O)O)cn3C2CC2)CC1CN (configuration not stated)
A) 8.62

Q) What value of inhibition has been reported for the following compound? C#CCC(CCCCCC)C(=O)O (configuration not stated)
A) 10.2

Q) What value of inhibition has been reported for the following compound? O=c1cc(-c2ccc(O)cc2)[nH]c(=S)[nH]1
A) -22.1

Q) What value of inhibition has been reported for the following compound? Cc1cc(C#N)cc(C)c1Oc1nc(Nc2ccc(C#N)cc2)nc(N)c1Br
A) -9.33

Q) What value of inhibition has been reported for the following compound? C=C1CCC(O)CC1=CC=C1CCCC2(C)C1CCC2C(C)C=CC(C)C(C)C (configuration not stated)
A) 7.28

Q) What value of inhibition has been reported for the following compound? Cc1cn(C2CC(O)C(COP(=O)(O)OP(=O)(O)OP(=O)(O)O)O2)c(=O)[nH]c1=O (configuration not stated)
A) -1.96

Q) What value of inhibition has been reported for the following compound? NC(=O)c1cccc2[nH]c(-c3ccc(C4CCCN4)cc3F)nc12 (configuration not stated)
A) 22.6

* * *

assay_info: viability loss with induced miR-34 in A549 – imaging, A549 dox-inducible miR-34, nuclei and caspase counts, primary screen (AID 1347080)
condition_details: A549 miR-34 inducible, Hoechst nuclei count, 48 h; stronger effect = lower value; cell number ratio, induced over uninduced
value_kind: fold change
# output: bare number, no unit

Recorded results for 5 compounds are shown here.
>  <compound>
N#CSc1cc(SC#N)c(N)nc1N

>  <fold change>
1.07

$$$$
>  <compound>
CC(C)CC(=O)N[C@H](C(=O)NC(C(=O)NC(CC(C)C)[C@@H](O)CC(=O)N[C@@H](C)C(=O)N[C@@H](CC(C)C)[C@@H](O)CC(=O)O)C(C)C)C(C)C (some centres undefined)

>  <fold change>
0.937

$$$$
>  <compound>
CCOC(=O)c1cc2ccc(O)cc2oc1=O

>  <fold change>
0.98

$$$$
>  <compound>
Cn1nc(-c2cccnc2)c2[nH]c(-c3ccccc3OC(F)F)nc21

>  <fold change>
0.875

$$$$
>  <compound>
CC(C)SC1OC(CO)C(O)C(O)C1O (centres undefined)

>  <fold change>
0.887

$$$$

Q) What value of fold change has been reported for the following compound? CC1COC2=C1C(=O)C(=O)c1c2ccc2c1CCCC2(C)C (centres undefined)
A) 1.09

Q) What value of fold change has been reported for the following compound? C[N+](C)(C)[C@@H](Cc1c[nH]c(=S)[nH]1)C(=O)[O-]
A) 0.872

* * *

assay_info: compounds altering Cy5-DNA-NS3h complex signal – biochemical, LOPAC1280, artefact control for HCV NS3 helicase inhibitor project (AID 687037)
condition_details: Cy5-DNA-NS3h complex fluorescence interference counterscreen
Quick reference: fluorescence ratio (interference) of the listed items.
# output: bare number, no unit

>  <compound>
OC[C@H]1O[C@@H](n2cnc3c(NC4CCCCC4)ncnc32)[C@H](O)[C@@H]1O

>  <value_kind>
fluorescence ratio (interference)

>  <test_result>
1

$$$$
>  <compound>
C[N+](C)(C)CC=O

>  <value_kind>
fluorescence ratio (interference)

>  <test_result>
0.9

$$$$
>  <compound>
CC(=O)SCC[N+](C)(C)C

>  <value_kind>
fluorescence ratio (interference)

>  <test_result>
1

$$$$
>  <compound>
Cc1cn([C@H]2C[C@@H](N=[N+]=[N-])[C@@H](CO)O2)c(=O)[nH]c1=O

>  <value_kind>
fluorescence ratio (interference)

>  <test_result>
0.9

$$$$
>  <compound>
COC(=O)C(N)Cc1ccc(Cl)cc1 (stereo not given)

>  <value_kind>
fluorescence ratio (interference)

>  <test_result>
1

$$$$
>  <compound>
CCC1(O)CC2CN(CCc3c([nH]c4ccccc34)[C@@](C(=O)OC)(c3cc4c(cc3OC)N(C)C3[C@]45CCN4CC=C[C@@](CC)([C@@H](OC(C)=O)[C@]3(O)C(=O)OC)[C@H]45)C2)C1 (stereo not given in full)

>  <value_kind>
fluorescence ratio (interference)

>  <test_result>
1

$$$$
>  <compound>
COC1=C(OC)C(=O)c2ccccc2C1=O

>  <value_kind>
fluorescence ratio (interference)

>  <test_result>
1

$$$$
>  <compound>
COc1cc(C(O)C(=O)O)ccc1O (stereo not given)

>  <value_kind>
fluorescence ratio (interference)

>  <test_result>
1

$$$$
>  <compound>
CC(C)NC[C@@H](O)c1ccc(O)c(O)c1

>  <value_kind>
fluorescence ratio (interference)

>  <test_result>
0.9

$$$$
>  <compound>
C#CCn1c(=O)c2c(ncn2C)n(C)c1=O

>  <value_kind>
fluorescence ratio (interference)

>  <test_result>
1

$$$$

Q) What value of fluorescence ratio (interference) has been reported for the following compound? OC[C@H]1O[C@@H](n2cnc3cncnc32)[C@H](O)[C@@H]1O
A) 1
